- System: K562
- protocol details: Antiproliferative activity against human K562 cells after 48 hrs by alamar blue assay
- Format: functional, cell-based
- conditions used: K562, 48 h
reported endpoint: EC50 (µM)

Fc1ccccc1Nc1nc2c(-c3nnc[nH]3)cccc2c2sccc12 | 3.6
Fc1ccc(Nc2nc3c(-c4nnc[nH]4)cccc3c3sccc23)c(F)c1 | 4.8
Fc1ccccc1Nc1nc2c(-c3nnc[nH]3)cccc2n2cccc12 | 8.2
c1ccc(Nc2nc3c(-c4nnc[nH]4)cccc3c3sccc23)cc1 | 6.1
Clc1ccccc1Nc1nc2c(-c3nnc[nH]3)cccc2c2sccc12 | 3.6

###

pIC50: −log10 of the molar value.
Dear all, this message contains pIC50 results, target or system Casein kinase II alpha/beta (Homo sapiens).
reported endpoint: pIC50

FC(F)(F)c1cccc(Nc2nc3c(-c4nnc[nH]4)cccc3c3sccc23)c1 | 7.62
COc1ccc(Nc2nc3c(-c4nnc[nH]4)cccc3c3sccc23)cc1 | 8.30
Clc1ccc(Nc2nc3c(-c4nnc[nH]4)cccc3c3sccc23)cc1 | 7.48
Clc1ccccc1Nc1nc2c(-c3nnc[nH]3)cccc2c2ccsc12 | 7.68
Fc1cccc(Nc2nc3c(-c4nnc[nH]4)cccc3c3sccc23)c1 | 8.15
Clc1ccccc1Nc1nc2c(-c3nnc[nH]3)cccc2c2cscc12 | 7.70
NC(=O)c1ccc(Nc2nc3c(-c4nnc[nH]4)cccc3c3sccc23)cc1 | 6.86
O=C(O)c1cccc2c1nc(Nc1ccccc1Cl)c1ccsc12 | 6.86
Oc1ccc(Nc2nc3c(-c4nnc[nH]4)cccc3c3sccc23)c(Cl)c1 | 8.00
Cc1cc2c(Nc3ccccc3F)nc3c(-c4nnc[nH]4)cccc3c2s1 | 7.59
Clc1ccccc1Nc1nc2c(-c3nnc[nH]3)cccc2c2sccc12 | 8.05
Clc1ccccc1Nc1nc2c(-c3nnc[nH]3)cccc2n2cccc12 | 7.05
c1cc(-c2nnc[nH]2)c2nc(N3CCOCC3)c3ccsc3c2c1 | 6.89
Fc1cc(F)cc(Nc2nc3c(-c4nnc[nH]4)cccc3c3sccc23)c1 | 6.82
N#Cc1cccc(Nc2nc3c(-c4nnc[nH]4)cccc3c3sccc23)c1 | 6.90
NC(=O)c1cccc2c1nc(Nc1ccccc1Cl)c1ccsc12 | 7.66
COc1cccc(Nc2nc3c(-c4nnc[nH]4)cccc3c3sccc23)c1 | 7.96
c1ccc(Nc2nc3c(-c4nnc[nH]4)cccc3c3cscc23)cc1 | 8.00
c1ccc(Nc2nc3c(-c4nnc[nH]4)cccc3n3cccc23)cc1 | 7.00
c1ccc(Nc2nc3c(-c4nnc[nH]4)cccc3c3sccc23)cc1 | 8.00
Clc1ccccc1Nc1nc2c(-c3nnc[nH]3)cccc2c2scnc12 | 7.41
c1cncc(Nc2nc3c(-c4nnc[nH]4)cccc3c3sccc23)c1 | 7.12
Fc1ccc(Nc2nc3c(-c4nnc[nH]4)cccc3c3sccc23)c(Cl)c1 | 7.28
Fc1ccc(Nc2nc3c(-c4nnc[nH]4)cccc3c3sccc23)cc1F | 7.11
COc1ccccc1Nc1nc2c(-c3nnc[nH]3)cccc2c2sccc12 | 7.08
C#Cc1cccc(Nc2nc3c(-c4nnc[nH]4)cccc3c3sccc23)c1 | 8.70
CNC(=O)c1cccc2c1nc(Nc1ccccc1Cl)c1ccsc12 | 7.32
c1ccc(CNc2nc3c(-c4nnc[nH]4)cccc3c3sccc23)cc1 | 7.32

meta.source: ChEMBL document CHEMBL2016532
